- Tested on: TK-10
- assayName: NCI tumour cell line growth inhibition, 48 h
Activity calls are given as the source filed them. Rule as the data show it: active = GI50 up to about 1.1 µM and inactive = higher.
measuredEndpoint: GI50

Prompt: Please look up its GI50: `Cn1cc/c(=N\N=c2/ccn(C)c3ccccc23)c2ccccc21`
Response: 19.1 µM (inactive)

Prompt: Query: GI50; subject: COc1ccccc1NC(=O)CC(=O)N1N=C(C)C(/N=N/c2ccc(S(N)(=O)=O)cc2)C1=O (stereo unspecified)
Response: > 100 µM (inactive)

Prompt: Which value of GI50 has been reported for `CC(=O)Nc1ccc(-c2nnc(SCC(=O)Nc3ccc(Cl)cc3)o2)cc1` in the records?
Response: 18.4 µM (inactive)

Prompt: I am curious: what GI50 value has been reported for CC(C)C(C/C=C1\CC(CO)(COC(=O)C(C)(C)C)OC1=O)C(C)C (stereo unspecified) ?
Response: 7.23 µM (inactive)

Prompt: What does the data say about its GI50? Entry: `COc1ccc(C/C=C(\C)CCO)cc1`
Response: > 100 µM (inactive)

Prompt: # lookup: GI50 of `Clc1ccc(C[P+](c2ccccc2)(c2ccccc2)c2ccccc2)c(Cl)c1`
Response: 6.52 µM (inactive)
